Reference for the values: ChEMBL document CHEMBL1140394

# target-or-system: 3-phosphoinositide-dependent protein kinase 1 (Homo sapiens)
# Sequence (O15530 whole entry): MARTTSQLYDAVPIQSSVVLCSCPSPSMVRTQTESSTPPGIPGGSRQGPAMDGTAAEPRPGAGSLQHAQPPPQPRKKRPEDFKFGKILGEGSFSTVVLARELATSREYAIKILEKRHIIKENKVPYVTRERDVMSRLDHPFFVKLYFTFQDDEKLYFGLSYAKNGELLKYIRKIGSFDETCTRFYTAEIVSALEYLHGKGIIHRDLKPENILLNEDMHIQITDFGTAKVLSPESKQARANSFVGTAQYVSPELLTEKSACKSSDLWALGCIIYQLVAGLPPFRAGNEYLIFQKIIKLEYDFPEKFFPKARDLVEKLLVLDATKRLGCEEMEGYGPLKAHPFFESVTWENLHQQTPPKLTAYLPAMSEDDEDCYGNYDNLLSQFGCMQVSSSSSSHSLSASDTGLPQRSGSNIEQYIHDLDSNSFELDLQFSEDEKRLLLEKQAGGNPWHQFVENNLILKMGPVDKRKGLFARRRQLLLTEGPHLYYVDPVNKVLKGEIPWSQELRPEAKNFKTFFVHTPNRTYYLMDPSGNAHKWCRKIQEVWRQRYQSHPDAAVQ
# test-summary: Inhibitory activity against PDK1
measured-metric: IC50

- smiles-string: "COc1cc(Nc2c(C#N)cnc3cc(-c4ccc(CN5CCN(C)CC5)cn4)sc23)c(Cl)cc1Cl"
  measured-metric: "IC50"
  value-measured: "> 10 µM"

* * *

# target-or-system: UniProt P12931
# Sequence (P12931 2-536 limits assumed): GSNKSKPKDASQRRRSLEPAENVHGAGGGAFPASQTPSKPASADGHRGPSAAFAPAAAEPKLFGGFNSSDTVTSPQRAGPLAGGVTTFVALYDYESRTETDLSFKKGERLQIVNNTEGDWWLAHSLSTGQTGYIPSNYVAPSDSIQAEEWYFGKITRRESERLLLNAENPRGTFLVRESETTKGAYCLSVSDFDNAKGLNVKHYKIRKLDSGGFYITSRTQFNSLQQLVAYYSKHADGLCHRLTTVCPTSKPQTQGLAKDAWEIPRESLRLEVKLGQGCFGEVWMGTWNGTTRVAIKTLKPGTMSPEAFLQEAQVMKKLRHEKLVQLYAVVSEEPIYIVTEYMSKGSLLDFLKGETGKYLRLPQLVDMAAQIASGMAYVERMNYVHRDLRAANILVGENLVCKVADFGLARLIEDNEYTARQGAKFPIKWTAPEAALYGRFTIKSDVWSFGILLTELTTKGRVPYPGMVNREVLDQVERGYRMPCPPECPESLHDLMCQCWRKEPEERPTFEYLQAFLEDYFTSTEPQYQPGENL
# test-summary: Inhibitory activity against non-receptor tyrosine kinase Src in cell assay
# Assay type: functional
pIC50: −log10 of the molar value.

- smiles-string: "COc1cc(Nc2c(C#N)cnc3cc(-c4ccc(CN5CCN(C)CC5)cn4)sc23)c(Cl)cc1Cl"
  pIC50: 6.38
